# protocol: pKa and log P determination (Pion Inc./Sirius Analytical Instruments Ltd.)
# Format: physicochemical
# condition-description: read-out: neutral log P
endpoint: logP
Just the number, please, no unit attached.

Using the record for CNC(=O)c1cc2c(Oc3ccc(NC(=O)C4(C(=O)Nc5ccc(F)cc5)CC4)cc3)ccnc2cc1OC [Compound 1 Form A] , report its logP.
4.5
